assay: qHTS for Inhibitors of human tyrosyl-DNA phosphodiesterase 1 (TDP1): qHTS in cells in absence of CPT; conditions: DT40 Tdp1-/- hTDP1 cells, no CPT, ATP luminescence, 48 h; also: nearly all actives have a fitted effect of over 55% in size
About 64,000 (15%) of roughly 420,000 compounds were called active. Not shown: some 27% with an inconclusive outcome. Calls follow the shape of the dose curve; as a rule, active = well fitted inhibition curve with a large enough effect; inconclusive = small, poorly fitted or top-dose-only effect; inactive = flat fitted curve, though single readings scatter. The list is a sample of the results.
Outcome codes: class 1 (active), class 0 (inactive)

In [3]: df
Out[3]:
                                    compound  answer_label
 0     O=C(NCc1ccccc1)c1cc(-c2cccc(Cl)c2)on1       class 0
 1  Cc1c(C(=O)NCCCc2ccccc2)cccc1[N+](=O)[O-]       class 0
 2  Cc1ccc(S(=O)(=O)N2CC(O)C[C@H]2C(=O)OCC(=O)Nc2ccc(N3CCOCC3)cc2)cc1C (some centres undefined)       class 0
 3                    FCOC(C(F)(F)F)C(F)(F)F       class 0
 4            Nc1ccc(-c2nnc(-c3ccccc3)o2)cc1       class 0
 5                  CCN(CC)CCCSc1nc2ccccc2s1       class 0
 6   COc1ccc(-c2noc(COc3ccc(Cl)c(C)c3)n2)cc1       class 0
 7  CC(Oc1ccccc1F)C(=O)NN (centres undefined)       class 0
 8           Cc1cc(NC(=O)COn2nnc3ccccc32)no1       class 0
 9  COc1ccc(CCNS(=O)(=O)c2cccc([N+](=O)[O-])c2)cc1       class 0
10  CC(=O)CSc1nc(CCc2ccccc2)c(C#N)c(=O)[nH]1       class 0
11  COc1ccc(OC)c(NC(=O)N[C@H](Cc2ccccc2)C(=O)NN)c1       class 0
12  O=C(COC(=O)c1ccc(F)c(S(=O)(=O)N2CCOCC2)c1)NCc1ccc2c(c1)OCO2       class 0
13  CCOC(=O)C1=C(C)NC(C)=C(C(=O)OCC)C1C1=COCCO1       class 0
14  COCCn1cnc2c1c(=O)n(Cc1ccc(Br)cc1)c(=O)n2Cc1ccccc1       class 0
15     C/C(=N\NS(=O)(=O)c1ccc(Br)cc1)c1cccs1       class 0
16  CCOC(=O)N1CCN(CC(=O)Nc2cc(C)nn2-c2nc3ccccc3s2)CC1       class 1
17  CN(C)S(=O)(=O)c1ccc(Cl)c(NC(=O)COC(=O)CC(NC(N)=O)c2ccc(Cl)cc2)c1 (centres undefined)       class 0
18  CCCNC(=O)COc1coc(CN2CCN(Cc3ccccc3)CC2)cc1=O       class 0
19  N=c1c2c(-c3ccccc3)c(-c3ccccc3)n(Cc3ccccc3)c2ncn1CCCO       class 1
20  COc1ccc(S(=O)(=O)NCCSc2nnnn2-c2ccccc2)cc1       class 0
21                  CCN1C(=O)CS/C1=N\c1nccs1       class 0
22  CCOC(=O)N1CCN(C(=O)Cn2cnc3ccccc3c2=O)CC1       class 0
23  Cc1ccc(N2C(=O)C3C4C=CC(CC4)C3C2=O)cc1Br (centres undefined)       class 0

* * *

assay: qHTS for Inhibitors of human tyrosyl-DNA phosphodiesterase 1 (TDP1): qHTS in cells in absence of CPT; details: DT40 Tdp1-/- hTDP1 cells, no CPT, ATP luminescence, 48 h; also: nearly all actives have a fitted effect of over 55% in size
Out of some 420,000 compounds screened, about 64,000 (15%) were called active. About 27% were inconclusive and are not listed. Calls follow the shape of the dose curve; as a rule, active = well fitted inhibition curve with a large enough effect; inconclusive = small, poorly fitted or top-dose-only effect; inactive = flat fitted curve, though single readings scatter. Not all results are given here.
Outcome codes: YES = active, NO = inactive

In [3]: df
Out[3]:
                                    compound  answer_label
 0  COc1ccccc1CN1CCCC(N2CCN(c3ccc(F)cc3)CC2)C1 (stereo not given)            NO
 1  O=C(COc1ccc(Cl)cc1)NCc1nnc(SCC(=O)NCC2CCCO2)o1 (stereo not given)            NO
 2           COC(=O)c1ccc(COc2ccc(C#N)cc2)o1            NO
 3  CCOc1cc(N2CCOCC2)c(OCC)cc1NC(=O)COc1cccc2cccnc12           YES
 4  CCN1CC(CN(C)Cc2nc(-c3ccc(Cl)cc3)no2)CC1=O (stereo not given)           YES
 5       COc1ccc(NC(=O)CSc2nncc(=O)n2N)cc1OC            NO
 6  COc1ccc(N=Nc2c(-c3ccc(OC)cc3)[nH]oc2=O)cc1            NO
 7             O=C(COc1cccc(Cl)c1)NCc1ccccc1            NO
 8  CCOC(=O)C1=C(O)/C(=C/c2ccc(OCC(=O)Nc3ccc(C)cc3)cc2)N=C1C            NO
 9  Cc1nn(C)cc1S(=O)(=O)N1CCN(c2ccc(F)cc2)CC1            NO
10  O=C(OCC(=O)N1CCc2ccccc21)c1ccc([N+](=O)[O-])cc1           YES
11  COC(=O)CN1C(=O)[C@H]2[C@@H](/C=C/c3ccccc3)N3C(=O)CN(CC4CC4)C(=O)[C@@]3(Cc3ccccc3)[C@H]2C1=O            NO
12  Cc1ccc(S(=O)(=O)NCC(=O)OCC(=O)N2CCc3ccccc32)cc1            NO
13  COC1=CC(=O)OC(c2ccc(OC)cc2)C1 (stereo not given)            NO
14   COCCCNC(=O)Cc1ccc(-n2c(C)nc3cccnc32)cc1            NO
15  COCC(=O)N1CCCC(C(=O)c2ccc(C(F)(F)F)cc2)C1 (stereo not given)            NO
16  CCn1c(SCC(=O)Nc2cccc(F)c2)nnc1-c1cc2cc(Br)ccc2o1            NO
17     CCOc1ccc(OCCSc2nc3ccccc3n2CC(=O)O)cc1            NO
18  CCCC(C)C(=O)Nc1ccc(NC(C)=O)cc1 (stereo not given)            NO
19  CCN(Cc1ccccc1)C(=O)CCS(=O)(=O)c1ccc2c(c1)oc(=O)n2C            NO
20                COc1ccc(N=C2C=CC(=O)O2)cc1           YES
21  CCc1nc2ccc(C(=O)Nc3cc(-c4ccccc4)ccc3OC)cn2c1N(CC)CC(=O)N(C)C           YES
22  CC1=CC2=NC(=O)CC(C)(C(=O)N(CC(=O)NC(C)(C)C)Cc3ccccc3)N2C=C1 (stereo not given)            NO
23  O=C(Cn1nc(C(F)(F)F)c2c1CCC2)NCc1ccc(F)cc1            NO
24  Cc1c(C(=O)N(C)C)sc2c1c(=O)n(-c1ccc(F)cc1)c(=O)n2CC(=O)N(C)c1ccccc1            NO
25      CN(Cc1ccccn1)Cc1nc(-c2ccc(Cl)cc2)no1            NO
26  CN(Cc1cccc2ncccc12)C(=O)CC1C(=O)NCCN1Cc1ccc(F)cc1 (stereo not given)            NO
27  COc1ccc(C(=O)O/N=C(\N)c2ccccn2)cc1[N+](=O)[O-]            NO
28   Cc1c(C)n2c(SCC(=O)NC3CCCC3)nnc2[nH]c1=O            NO
29            CCCC(=O)N1CCc2[nH]c3ccccc3c2C1            NO
30  Cc1ccc(C(C)C)c(OCCSc2nc3ccccc3n2CC(=O)O)c1            NO
31              Nn1c(SCC(=O)Nc2nccs2)nncc1=O            NO
32  CC(CN1CCC(n2nccc2NC(=O)C2CCCC2)CC1)c1ccccc1 (stereo not given)            NO
33               Cc1ccc(Cl)cc1NC(=O)c1ccccn1            NO
34  O=C(NCCCN1CCN(C2CCCCC2)CC1)Nc1ccccc1C(F)(F)F            NO
35     NC(=O)C1CCN(C(=O)COc2cccc3cccnc23)CC1            NO
36               S=C(Nc1ccc(Cl)cc1Cl)N1CCCC1            NO
37  COc1ccc(CCNC(=S)N2CCN(S(=O)(=O)c3ccc(Cl)cc3)CC2)cc1            NO
38  O=C(Nc1ccccc1C(=O)O)c1ccc(N2C(=O)C3CC=CCC3C2=O)cc1 (stereo not given)            NO
39  Cn1cc(/C=C/C(=O)N2CCCC(C(=O)c3ccc(C(F)(F)F)cc3)C2)cn1 (stereo not given)            NO
40  CC1CCN(C(NC(=O)c2ccco2)C(=O)c2ccccc2)CC1 (stereo not given)            NO
41  Cc1cccc(OCCSc2nc3ccccc3n2CC(=O)N2CCCCC2)c1C           YES
42  Oc1cc2c(cc1O)CN(C(=S)NCCc1ccc(Cl)cc1)CCC2           YES
43  Cc1cccc(NC(=O)c2ccc(OCC(=O)NCc3ccccc3)cc2)c1C            NO
44  O=C(CSc1nnc(-c2c[nH]c3ccccc23)o1)c1ccccc1            NO

Numbers sourced from PubChem BioAssay AID686978.
